Origin of measurements: patent US9540332B2

Target: Nav1.3 (Homo sapiens)
Sequence (Q9NY46 whole entry): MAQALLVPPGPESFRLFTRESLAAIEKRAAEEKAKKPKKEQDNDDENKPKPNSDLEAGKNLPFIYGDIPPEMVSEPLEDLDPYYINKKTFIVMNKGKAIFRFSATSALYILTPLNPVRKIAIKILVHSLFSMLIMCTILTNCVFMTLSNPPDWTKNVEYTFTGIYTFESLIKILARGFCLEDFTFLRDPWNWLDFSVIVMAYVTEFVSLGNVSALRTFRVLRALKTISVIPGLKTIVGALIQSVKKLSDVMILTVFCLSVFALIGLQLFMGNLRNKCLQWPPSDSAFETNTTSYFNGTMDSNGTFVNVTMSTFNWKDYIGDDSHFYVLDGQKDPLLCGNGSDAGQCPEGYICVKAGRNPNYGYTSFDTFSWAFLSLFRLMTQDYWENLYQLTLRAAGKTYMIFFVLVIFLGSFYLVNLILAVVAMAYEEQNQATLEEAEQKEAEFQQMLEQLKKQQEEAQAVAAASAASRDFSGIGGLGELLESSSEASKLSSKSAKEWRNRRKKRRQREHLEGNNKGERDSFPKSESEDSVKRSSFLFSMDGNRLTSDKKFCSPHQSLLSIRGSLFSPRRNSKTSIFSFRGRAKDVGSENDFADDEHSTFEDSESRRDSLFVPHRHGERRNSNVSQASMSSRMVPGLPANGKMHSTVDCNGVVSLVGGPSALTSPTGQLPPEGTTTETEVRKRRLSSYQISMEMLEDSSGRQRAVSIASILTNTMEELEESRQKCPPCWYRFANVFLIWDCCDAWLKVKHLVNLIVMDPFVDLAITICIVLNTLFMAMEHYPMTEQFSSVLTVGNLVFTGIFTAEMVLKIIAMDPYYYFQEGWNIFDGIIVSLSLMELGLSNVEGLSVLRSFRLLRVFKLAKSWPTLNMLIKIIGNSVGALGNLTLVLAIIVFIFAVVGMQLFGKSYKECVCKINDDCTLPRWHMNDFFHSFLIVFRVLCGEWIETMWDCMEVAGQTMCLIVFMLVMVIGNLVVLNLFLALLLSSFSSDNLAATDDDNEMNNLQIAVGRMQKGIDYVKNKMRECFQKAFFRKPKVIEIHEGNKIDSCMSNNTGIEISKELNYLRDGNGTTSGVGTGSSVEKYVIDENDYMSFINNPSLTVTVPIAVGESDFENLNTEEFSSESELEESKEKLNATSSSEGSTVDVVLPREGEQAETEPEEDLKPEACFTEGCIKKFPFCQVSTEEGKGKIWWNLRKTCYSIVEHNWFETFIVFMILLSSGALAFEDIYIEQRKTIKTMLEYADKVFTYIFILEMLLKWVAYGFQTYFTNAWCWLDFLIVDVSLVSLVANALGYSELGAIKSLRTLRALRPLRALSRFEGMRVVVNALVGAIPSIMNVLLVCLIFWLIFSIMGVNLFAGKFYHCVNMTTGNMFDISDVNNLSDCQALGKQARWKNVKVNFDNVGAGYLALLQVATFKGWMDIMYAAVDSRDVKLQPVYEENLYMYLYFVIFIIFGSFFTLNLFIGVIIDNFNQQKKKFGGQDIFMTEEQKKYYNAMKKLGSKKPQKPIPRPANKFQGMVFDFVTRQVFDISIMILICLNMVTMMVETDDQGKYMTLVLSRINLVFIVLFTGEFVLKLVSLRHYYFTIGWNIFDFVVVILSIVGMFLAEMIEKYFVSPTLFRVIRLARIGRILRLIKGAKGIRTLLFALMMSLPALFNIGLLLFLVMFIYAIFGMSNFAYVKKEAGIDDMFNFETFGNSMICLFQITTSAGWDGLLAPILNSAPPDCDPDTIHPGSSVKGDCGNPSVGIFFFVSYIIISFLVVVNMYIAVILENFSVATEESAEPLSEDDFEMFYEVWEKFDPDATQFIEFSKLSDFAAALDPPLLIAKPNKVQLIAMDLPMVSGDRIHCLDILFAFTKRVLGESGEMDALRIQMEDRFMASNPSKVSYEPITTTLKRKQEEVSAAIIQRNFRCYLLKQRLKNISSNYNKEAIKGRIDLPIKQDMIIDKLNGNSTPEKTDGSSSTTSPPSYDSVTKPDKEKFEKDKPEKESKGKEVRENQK
Test: gigohm-seal manual patch-clamp (MPC) on HEK cells stably transfected with sodium channels
Details: FIG. 1, read-out: effective dose for blocking the transient current
Description: Therefore, the efficacy and selectivity of the identified persistent current antagonists were verified using conventional gigohm-seal manual patch-clamp (MPC). MPC experiments were conducted on human embroynic kidney (HEK) cells stably transfected with sodium channels were plated on coverslips. […] After application of the compound, current amplitude was monitored until equilibrium was established. […] Adequate solution perfusion and gigohm seal stability were monitored throughout the experiment. […]
RECORDED_METRIC: IC50

Lookup: Return the recorded IC50 value; entry: C=C(C)Cn1c(COc2cccc(OC)c2)nc2ccccc21 [Compound #3]
Found: > 30 µM
